Biological target: HCoV-229E 3CL protease (Human coronavirus 229E)
Experiment: FRET based protease assay, HCoV-229E 3CL
Settings: 229E IC50, 6 nM H229E-CoV Chis-3CLpro, 6 μM peptide 1 substrate, 25° C., 1.5 hrs, pH 7.5
So I've got a bunch of compounds here, and I need their IC50 values.

Exercise: Quick one: IC50 for "N#C[C@@H]1C[C@@H]2C(=O)NC[C@@H]2CCCC[C@H](NC(=O)C2CC(F)(F)C2)C(=O)N2C[C@@H]3CCC[C@@H]3[C@H]2C(=O)N1" ?
Solution: < 100 nM

Exercise: Quick one: IC50 for "CC(C)(C)OC(=O)N[C@H]1CCCC[C@H]2CNC(=O)[C@H]2C[C@@H](C#N)NC(=O)[C@@H]2[C@H]3CC[C@H](C3)N2C1=O" ?
Solution: 1000 to 20000 nM

Exercise: Quick one: IC50 for "CC1(C)[C@@H]2[C@H]3C(=O)N[C@H](C#N)C[C@@H]4C(=O)NC[C@@H]4CCCC[C@H](NC(=O)C4(C(F)(F)F)CC4)C(=O)N3C[C@@H]21" ?
Solution: < 100 nM

Exercise: Quick one: IC50 for "CC1(C)[C@@H]2[C@H]3C(=O)N[C@H](C#N)C[C@@H]4C(=O)NC[C@@H]4CCCC[C@H](NC(=O)C4CC(F)(F)C4)C(=O)N3C[C@@H]21" ?
Solution: < 100 nM

Exercise: Quick one: IC50 for "CC(C)(C)OC(=O)N[C@H]1CCC[C@H]2CCNC(=O)[C@H]2C[C@@H](C#N)NC(=O)[C@@H]2[C@H]3CCC[C@H]3CN2C1=O" ?
Solution: 100 to 1000 nM

Exercise: Quick one: IC50 for CC(C)C[C@@H]1NC(=O)C(OC2CCCCC2)CCC[C@H]2CNC(=O)[C@@H]2C[C@@H](C#N)NC1=O (stereo partly drawn) ?
Solution: > 20000 nM

====

So I've got a bunch of molecules here, and I need their pIC50 values.
Molecular target: HCoV-229E 3CL protease (Human coronavirus 229E, UniProt P0C6U2)
Sequence (P0C6U2 2966-3267): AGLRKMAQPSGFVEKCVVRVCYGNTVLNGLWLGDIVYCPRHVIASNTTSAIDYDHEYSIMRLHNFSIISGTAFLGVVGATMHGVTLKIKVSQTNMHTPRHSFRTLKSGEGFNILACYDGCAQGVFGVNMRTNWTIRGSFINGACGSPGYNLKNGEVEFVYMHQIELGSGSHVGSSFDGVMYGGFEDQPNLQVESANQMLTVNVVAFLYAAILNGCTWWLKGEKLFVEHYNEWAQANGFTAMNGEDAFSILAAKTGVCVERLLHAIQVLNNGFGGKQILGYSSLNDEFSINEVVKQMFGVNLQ
Assay: FRET based protease assay, HCoV-229E 3CL
Details: 229E IC50, 6 nM H229E-CoV Chis-3CLpro, 6 μM peptide 1 substrate, 25° C., 1.5 hrs, pH 7.5
pIC50: −log10 of the molar value.

Exercise: Quick one: pIC50 for "CC(C)C[C@@H]1NC(=O)[C@@H](Cc2cccc(C(F)(F)F)c2)CCCC[C@H]2CNC(=O)[C@H]2C[C@@H](C#N)NC1=O" ?
Solution: 4.70 to 6.00

Exercise: Quick one: pIC50 for "CC(C)(C)OC(=O)N[C@H]1COCCC[C@H]2CNC(=O)[C@H]2C[C@@H](C#N)NC(=O)[C@@H]2[C@@H]3[C@H](CN2C1=O)C3(C)C" ?
Solution: > 7.00

Exercise: Quick one: pIC50 for "CC1(C)[C@@H]2[C@H]3C(=O)N[C@H](C#N)C[C@@H]4C(=O)NC[C@@H]4CCCC[C@H](NC(=O)c4ccncn4)C(=O)N3C[C@@H]21" ?
Solution: > 7.00

====

Target: HCoV-229E 3CL protease (Human coronavirus 229E)
Assay: FRET based protease assay, HCoV-229E 3CL
Conditions: 229E IC50, 6 nM H229E-CoV Chis-3CLpro, 6 μM peptide 1 substrate, 25° C., 1.5 hrs, pH 7.5
pIC50: −log10 of the molar value.
So I've got a bunch of compounds here, and I need their pIC50 values.

Exercise: Quick one: pIC50 for "CC(C)C[C@@H]1NC(=O)CCCCCC[C@@H]2CNC(=O)[C@@H]2C[C@@H](C=O)NC1=O" ?
Solution: 6.00 to 7.00

Exercise: Quick one: pIC50 for "CC(C)(C)OC(=O)N[C@H]1CCCC[C@H]2CNC(=O)[C@H]2C[C@@H](C#N)NC(=O)[C@@H]2CC3(CCN2C1=O)CC3" ?
Solution: > 7.00

Exercise: Quick one: pIC50 for "CC(C)C[C@@H]1NC(=O)CCCCC[C@H]2CCNC(=O)[C@@H]2C[C@@H](C=O)NC1=O" ?
Solution: 6.00 to 7.00

Exercise: Quick one: pIC50 for "CC(C)(C)OC(=O)N[C@H]1CC/C=C/[C@H]2CNC(=O)[C@H]2C[C@@H](C#N)NC(=O)[C@@H]2[C@@H]3[C@H](CN2C1=O)C3(C)C" ?
Solution: > 7.00

Exercise: Quick one: pIC50 for "CC1(C)[C@@H]2[C@H]3C(=O)N[C@H](C#N)C[C@@H]4C(=O)NC[C@@H]4CCCC[C@H](NC(=O)c4ccc(F)cc4C(F)(F)F)C(=O)N3C[C@@H]21" ?
Solution: > 7.00

Exercise: Quick one: pIC50 for "CC1(C)[C@@H]2[C@H]3C(=O)N[C@H](C#N)C[C@@H]4C(=O)NC[C@@H]4CCCC[C@H](NS(=O)(=O)c4ccccc4)C(=O)N3C[C@@H]21" ?
Solution: > 7.00

Exercise: Quick one: pIC50 for "CC(C)C[C@@H]1NC(=O)[C@@H](C2CCCC2)CCC[C@H]2CNC(=O)[C@H]2C[C@@H](C=O)NC1=O" ?
Solution: 6.00 to 7.00

Exercise: Quick one: pIC50 for "CC(C)(C)NC(=O)[C@@H]1CCCC[C@H]2CNC(=O)[C@H]2C[C@@H](C#N)NC(=O)[C@@H]2[C@@H]3[C@H](CN2C1=O)C3(C)C" ?
Solution: 4.70 to 6.00

Exercise: Quick one: pIC50 for "CC1(C)[C@@H]2[C@H]3C(=O)N[C@H](C#N)C[C@H]4C(=O)NC[C@@H]4CCCCC(=O)N3C[C@@H]21" ?
Solution: 6.00 to 7.00

Exercise: Quick one: pIC50 for "CC(C)(C)C(=O)N[C@H]1CCCC[C@H]2CCNC(=O)[C@H]2C[C@@H](C#N)NC(=O)[C@@H]2[C@@H]3[C@H](CN2C1=O)C3(C)C" ?
Solution: > 7.00

Exercise: Quick one: pIC50 for "CC(C)C[C@@H]1NC(=O)[C@@H](NC(=O)OC(C)(C)C)CCCC[C@H]2CNC(=O)[C@H]2C[C@@H](C#N)NC1=O" ?
Solution: > 7.00

Exercise: Quick one: pIC50 for "CC(C)C[C@@H]1NC(=O)[C@@H](NC(=O)OC(C)(C)C)CCC[C@H]2CNC(=O)[C@@H]2C[C@@H](C=O)NC1=O" ?
Solution: > 7.00

Exercise: Quick one: pIC50 for "CC(C)C[C@@H]1NC(=O)[C@@H](C2CCCC2)CCCC[C@H]2CNC(=O)[C@H]2C[C@@H](C#N)NC1=O" ?
Solution: < 4.70
